Source of measurements: PubChem BioAssay (Tox21)

# System Tested: Androgen receptor (Homo sapiens)
# Procedure Details: qHTS assay to identify small molecule agonists of the androgen receptor (AR) signaling pathway in the presence of an antagonist (AID 1259381); also: nearly all actives have a fitted effect of over 15% in size
# Setup Conditions: MDA-kb2 MMTV-luciferase, AR agonist + nilutamide, 16 h; series mostly up to 92.4 µM
Active and inactive are the calls of the source. Calls follow the shape of the full dose curve.
Reported Property: activation

{"columns": ["Molecule", "Observed Measurement"],
 "data": [
  ["C1=CCCC1", "inactive"],
  ["O=S(=O)(c1ccc(OCc2ccccc2)cc1)c1ccccc1O", "inactive"],
  ["O=C1c2ccccc2C(=O)c2c(Cl)cccc21", "inactive"],
  ["CCOC(=O)[C@H](O)[C@@H](O)C(=O)OCC", "inactive"],
  ["CCc1cccc(CC)c1", "inactive"],
  ["CCN(CC)c1ccc2c(c1)Oc1cc(N(CC)CC)ccc1C21OC(=O)c2ccccc21", "inactive"],
  ["Cc1c[nH]c(=O)[nH]c1=O", "inactive"],
  ["Nc1cc([N+](=O)[O-])ccc1Cl", "inactive"],
  ["C=CC(=O)OCC(Br)CBr (centres undefined)", "inactive"],
  ["O=[N+]([O-])c1ccc(CO)cc1", "inactive"],
  ["COC(=O)c1ccc([N+](=O)[O-])cc1", "inactive"],
  ["CC1=CC[C@@H](C(C)(C)O)CC1", "inactive"],
  ["Cc1cc(C)c(O)c(C(C)(C)C)c1", "inactive"],
  ["CCCCCc1ccc(O)cc1", "inactive"]
]}
